tested on: Lacticaseibacillus casei; test: Antibacterial activity against chlorguanide triazine-resistant Lactobacillus casei ATCC 7469 assessed as reduction in growth; assay type: functional, organism-based
pIC50: −log10 of the molar value.
If the reported pIC50 equals or exceeds 5, assign T. If not, assign F.

[[record]]
compound = "COc1cc(NC(C)CCCN)c2ncccc2c1 (stereo unspecified)"
assigned_class = "F"

[[record]]
compound = "O=C(NO)c1ccc(C(=O)NO)cc1"
assigned_class = "F"

[[record]]
compound = "N=C(N)N/N=C(\\c1ccc(F)cc1)c1ccc(C(F)(F)F)cc1"
assigned_class = "F"

[[record]]
compound = "CN(Cc1cnc2nc(N)nc(N)c2n1)c1ccc(C(=O)N[C@@H](CCC(=O)O)C(=O)O)cc1 [METHOTREXATE]"
assigned_class = "T"

[[record]]
compound = "COc1cc(Cc2cnc(N)nc2N)cc(OC)c1OC"
assigned_class = "T"

[[record]]
compound = "Nc1nc(N)c2cc(Sc3ccc(Cl)cc3)ccc2n1"
assigned_class = "T"

[[record]]
compound = "CC(C)c1nc2nc(N)nc(N)c2nc1C(C)C"
assigned_class = "T"

[[record]]
compound = "Clc1ccc(Nc2nc(NCCCN3CCCC3)c3ccccc3n2)cc1Cl"
assigned_class = "T"

[[record]]
compound = "Nc1nc(N)c2cc(NCc3ccc(Cl)c(Cl)c3)ccc2n1"
assigned_class = "T"

[[record]]
compound = "Nc1ccc(S(=O)(=O)Nc2ncccn2)cc1"
assigned_class = "F"

[[record]]
compound = "CCN(CC)CCCC(C)Nc1ccnc2cc(Cl)ccc12 (stereo unspecified)"
assigned_class = "F"


---

test system: Escherichia coli; experiment: Antibacterial activity against sensitive Escherichia coli ATCC 10536 assessed as reduction in growth in presence of p-aminobenzoic acid; format: functional, organism-based
The source made the active and inactive calls. The calls are words filed in the database; no cut-off is given here.
Outcome codes: active, inactive

[[record]]
compound = "COc1cc(Cc2cnc(N)nc2N)cc(OC)c1OC"
assigned_class = "active"

[[record]]
compound = "Nc1nc(N)c2c(ccc3cc(Br)ccc32)n1"
assigned_class = "active"

[[record]]
compound = "CC(C)c1nc2nc(N)nc(N)c2nc1C(C)C"
assigned_class = "active"

[[record]]
compound = "CN(Cc1cnc2nc(N)nc(N)c2n1)c1ccc(C(=O)N[C@@H](CCC(=O)O)C(=O)O)cc1 [METHOTREXATE]"
assigned_class = "active"

[[record]]
compound = "Nc1ccc(S(=O)(=O)Nc2ncccn2)cc1"
assigned_class = "inactive"

[[record]]
compound = "Cc1ccccc1-c1nc2c(N)nc(N)nc2nc1N"
assigned_class = "active"

[[record]]
compound = "CCc1nc(N)nc(N)c1-c1ccc(Cl)cc1"
assigned_class = "active"

[[record]]
compound = "CCCCN(CCCC)CC(O)c1cc(-c2ccc(Cl)c(Cl)c2)nc2c(Cl)cc(Cl)cc12 (stereo unspecified)"
assigned_class = "active"

[[record]]
compound = "ClC(Cl)(Cl)c1ccc(C(Cl)(Cl)Cl)cc1"
assigned_class = "active"

[[record]]
compound = "CCN(CC)CCNc1nc(Nc2ccc(Cl)c(Cl)c2)nc2ccccc12"
assigned_class = "active"

[[record]]
compound = "Nc1nc(N)c2cc(Sc3ccc(Cl)cc3)ccc2n1"
assigned_class = "active"


---

test system: Pediococcus; experiment: Antibacterial activity against chlorguanide triazine-resistant Pediococcus cerevisiae ATCC 808 assessed as reduction in growth in presence of 0.001 ug/ml folinic acid; assay type: functional
Active and inactive are the calls of the source. No cut-off for these calls is given here.
Outcome codes: Yes for active, No for inactive

[[record]]
compound = "CC(CNc1nc(Nc2ccc(Cl)c(Cl)c2)nc(C(Cl)(Cl)Cl)n1)N(C)C (stereo not given)"
assigned_class = "Yes"

[[record]]
compound = "Cc1nc(C)c(Cl)c(O)c1Cl"
assigned_class = "Yes"

[[record]]
compound = "CCCCN(CCCC)CC(O)c1cc(-c2ccc(Cl)c(Cl)c2)nc2c(Cl)cc(Cl)cc12 (stereo not given)"
assigned_class = "Yes"

[[record]]
compound = "C=C[C@H]1CN2CC[C@H]1C[C@H]2[C@H](O)c1ccnc2ccc(OC)cc12"
assigned_class = "Yes"

[[record]]
compound = "CN(Cc1cnc2nc(N)nc(N)c2n1)c1ccc(C(=O)N[C@@H](CCC(=O)O)C(=O)O)cc1 [METHOTREXATE]"
assigned_class = "No"

